Taken from the supplement of paper PMC9942566.

Tested on: Serratia marcescens K904 PosmB-luxCDABE reporter (pMQ747)
method summary: PosmB-lux reporter fold induction (RLU/OD600 relative to no-compound control), highest over Biolog concentrations; higher = stronger Rcs reporter activation
test parameters: wild type K904; 4 h
Tick Yes if PosmB-lux reporter fold induction is 2 or greater. Tick No if PosmB-lux reporter fold induction is less than 2.

{"columns": ["molecule", "test target", "label"],
 "data": [
  ["CC1(C)S[C@@H]2[C@H](NC(=O)[C@H](N)c3ccccc3)C(=O)N2[C@H]1C(=O)O [Ampicillin] (Biolog plate: PM13, well positions: A2-4)", "Serratia marcescens K904 PosmB-luxCDABE reporter (pMQ747)", "No"],
  ["CC1(C)S[C@@H]2[C@H](NC(=O)C(C(=O)O)c3ccccc3)C(=O)N2[C@H]1C(=O)O (stereo not given in full) [Carbenicillin] (Biolog plate: PM14, well positions: G5-8)", "Serratia marcescens K904 PosmB-luxCDABE reporter (pMQ747)", "Yes"],
  ["CC1(C)S[C@@H]2[C@H](NC(=O)COc3ccccc3)C(=O)N2[C@H]1C(=O)O.CN(C)[C@@H]1C(O)=C(C(=O)NCN2CCN(CCO)CC2)C(=O)[C@@]2(O)C(O)=C3C(=O)c4c(O)cccc4[C@@](C)(O)[C@H]3C[C@@H]12 [Penimepicycline] (Biolog plate: PM12, well positions: B5-8)", "Serratia marcescens K904 PosmB-luxCDABE reporter (pMQ747)", "Yes"],
  ["N[C@@H]1CONC1=O [D-Cycloserine] (Biolog plate: PM15, well positions: B1-4)", "Serratia marcescens K904 PosmB-luxCDABE reporter (pMQ747)", "No"],
  ["Nc1ccc(S(=O)(=O)Nc2nccs2)cc1 [Sulfathiazole] (Biolog plate: PM12, well positions: F5-8)", "Serratia marcescens K904 PosmB-luxCDABE reporter (pMQ747)", "No"]
]}

###

Listing: PosmB-lux reporter fold induction of selected compounds
Tested on: Serratia marcescens K904 PosmB-luxCDABE reporter (pMQ747)
method summary: PosmB-lux reporter fold induction (RLU/OD600 relative to no-compound control), highest over Biolog concentrations; higher = stronger reporter activation
test parameters: ΔrcsB mutant CMS5177; 4 h
measurement type: PosmB-lux reporter fold induction

{"columns": ["compound", "recorded measurement"],
 "data": [
  ["C[C@H]1O[C@@H](n2cc(F)c(=O)[nH]c2=O)[C@H](O)[C@@H]1O [5-fluoro-5'-deoxyuridine] (Biolog plate: PM18, well positions: H1-4)", 1.75],
  ["NC[C@@H]1O[C@H](O[C@H]2[C@@H](O)[C@H](O[C@@H]3[C@@H](O)[C@H](N)C[C@H](N)[C@H]3O[C@H]3O[C@H](CN)[C@@H](O)[C@H](O)[C@H]3N)O[C@@H]2CO)[C@H](N)[C@@H](O)[C@@H]1O [Neomycin] (Biolog plate: PM11, well positions: F9-12)", 1.31],
  ["c1cnc2c(c1)ccc1cccnc12 [1,10-Phenanthroline] (Biolog plate: PM15, well positions: C9-12)", 1.32],
  ["[Cl-].[Li+] [lithium chloride] (Biolog plate: PM17, well positions: F1-4)", 2.92],
  ["Cn1c(=O)c2c(ncn2C)n(C)c1=O [caffeine] (Biolog plate: PM17, well positions: H5-8)", 1.52],
  ["CCN1CCN(C(=O)N[C@@H](C(=O)N[C@@H]2C(=O)N3C(C(=O)O)=C(CSc4nnnn4C)CS[C@H]23)c2ccc(O)cc2)C(=O)C1=O [cefoperazone] (Biolog plate: PM17, well positions: G9-12)", 1.44],
  ["CO[C@@]1(NC(=O)CSCC#N)C(=O)N2C(C(=O)O)=C(CSc3nnnn3C)CS[C@@H]21 [Cefmetazole] (Biolog plate: PM15, well positions: A9-12)", 1.51],
  ["O=C1C=C(O)C(=O)c2ccccc21 [lawsone] (Biolog plate: PM19, well positions: E9-12)", 1.14],
  ["[Cl-].[Cs+] [Cesium chloride] (Biolog plate: PM13, well positions: F1-4)", 1.64],
  ["On1ccccc1=S [1-Hydroxy-pyridine-2-thione] (Biolog plate: PM14, well positions: C5-8)", 1.1],
  ["CC(C)c1nc2nc(N)nc(N)c2nc1C(C)C [2,4-Diamino-6,7-diisopropyl-pteridine] (Biolog plate: PM12, well positions: E1-4)", 2.91],
  ["CC(C(=O)O)c1cccc(C(=O)c2ccccc2)c1 (centres undefined) [ketoprofen (an NSAID)] (Biolog plate: PM18, well positions: A2-4)", 1],
  ["CN(C)C(=O)/N=N/C(=O)N(C)C [diamide] (Biolog plate: PM16, well positions: D5-8)", 2.26],
  ["NCC(=O)O [Glycine] (Biolog plate: PM13, well positions: F5-8)", 1.39],
  ["O=c1ccc2ccc(O)cc2o1 [umbelliferone] (Biolog plate: PM19, well positions: C5-8)", 0.964],
  ["O=C(O)c1cn(C2CC2)c2cc(N3CCNCC3)c(F)cc2c1=O [ciprofloxacin] (Biolog plate: PM20, well positions: D5-8)", 1.49],
  ["[Na+].[O]=[V](=[O])[O-] [Sodium metavanadate] (Biolog plate: PM14, well positions: F9-12)", 1.84],
  ["NC(CO)C(=O)NNCc1ccc(O)c(O)c1O (centres undefined) [Benserazide] (Biolog plate: PM20, well positions: A9-12)", 0.916],
  ["CO/N=C(\\C(=O)N[C@@H]1C(=O)N2C(C(=O)O)=C(CSc3nc(=O)c(O)nn3C)CS[C@H]12)c1csc(N)n1 [Ceftriaxone] (Biolog plate: PM11, well positions: G1-4)", 1.12],
  ["CCn1cc(C(=O)O)c(=O)c2cnc(N3CCNCC3)nc21 [pipemidic acid] (Biolog plate: PM18, well positions: B5-8)", 1.91],
  ["Cc1cc(C)nc(NS(=O)(=O)c2ccc(N)cc2)n1 [Sulfamethazine] (Biolog plate: PM12, well positions: D5-8)", 1.41],
  ["COc1cc(Cc2cnc(N)nc2N)cc(OC)c1OC [trimethoprim] (Biolog plate: PM16, well positions: B9-12)", 8.21],
  ["Nc1ncn([C@@H]2O[C@H](CO)[C@@H](O)[C@H]2O)c(=O)n1 [5-azacytidine] (Biolog plate: PM16, well positions: E5-8)", 2.23],
  ["CO/N=C(\\C(=O)N[C@@H]1C(=O)N2C(C(=O)O)=C(COC(C)=O)CS[C@H]12)c1csc(N)n1 [cefotaxime] (Biolog plate: PM16, well positions: A2-4)", 1.11]
]}

###

Test system: Serratia marcescens K904 PosmB-luxCDABE reporter (pMQ747)
method summary: PosmB-lux reporter fold induction (RLU/OD600 relative to no-compound control), highest over Biolog concentrations; higher = stronger reporter activation
test parameters: ΔrcsB mutant CMS5177; 4 h
measurement type: PosmB-lux reporter fold induction

{"columns": ["compound", "test target", "recorded measurement"],
 "data": [
  ["CCc1cc(C(N)=S)ccn1 [ethionamide] (Biolog plate: PM17, well positions: B9-12)", "Serratia marcescens K904 PosmB-luxCDABE reporter (pMQ747)", 0.857],
  ["C[n+]1cc2c3c(ccc2c2ccc4cc5c(cc4c21)OCO5)OCO3 [Sanguinarine] (Biolog plate: PM14, well positions: A9-12)", "Serratia marcescens K904 PosmB-luxCDABE reporter (pMQ747)", 1.14],
  ["CS(=O)(=O)c1ccc([C@@H](O)[C@@H](CO)NC(=O)C(Cl)Cl)cc1 [thiamphenicol] (Biolog plate: PM18, well positions: A9-12)", "Serratia marcescens K904 PosmB-luxCDABE reporter (pMQ747)", 0.916],
  ["CCN(CC)CC(=O)Nc1c(C)cccc1C [lidocaine] (Biolog plate: PM18, well positions: D9-12)", "Serratia marcescens K904 PosmB-luxCDABE reporter (pMQ747)", 0.721],
  ["CC[C@H]1OC(=O)[C@H](C)[C@@H](O[C@H]2C[C@@](C)(OC)[C@@H](O)[C@H](C)O2)[C@H](C)[C@@H](O[C@@H]2O[C@H](C)C[C@H](N(C)C)[C@H]2O)[C@](C)(O)C[C@@H](C)C(=O)[C@H](C)[C@@H](O)[C@]1(C)O [Erythromycin] (Biolog plate: PM11, well positions: F5-8)", "Serratia marcescens K904 PosmB-luxCDABE reporter (pMQ747)", 1.46],
  ["CO[C@@H]1[C@@H](O[C@@H]2O[C@H](C)[C@@H](O[C@H]3C[C@@](C)(O)[C@@H](OC(=O)CC(C)C)[C@H](C)O3)[C@H](N(C)C)[C@H]2O)[C@@H](CC=O)C[C@@H](C)[C@@H](O)/C=C/C=C/C[C@@H](C)OC(=O)C[C@H]1OC(C)=O [josamycin] (Biolog plate: PM19, well positions: A2-4)", "Serratia marcescens K904 PosmB-luxCDABE reporter (pMQ747)", 9.66],
  ["Nc1ccc2cc3ccc(N)cc3nc2c1 [proflavine] (Biolog plate: PM20, well positions: D1-4)", "Serratia marcescens K904 PosmB-luxCDABE reporter (pMQ747)", 1.91],
  ["CCCCCCCCCCCC[N+](C)(C)C [Dodecyltrimethyl ammonium bromide] (Biolog plate: PM12, well positions: H9-12)", "Serratia marcescens K904 PosmB-luxCDABE reporter (pMQ747)", 1.97],
  ["[Cl][Cu][Cl] [Cupric chloride] (Biolog plate: PM13, well positions: H1-4)", "Serratia marcescens K904 PosmB-luxCDABE reporter (pMQ747)", 1.06],
  ["CC(C)(C)CC(C)(C)c1ccc(OCCOCC[N+](C)(C)Cc2ccccc2)cc1 [Benzethonium chloride] (Biolog plate: PM12, well positions: E9-12)", "Serratia marcescens K904 PosmB-luxCDABE reporter (pMQ747)", 1.69],
  ["Oc1c(Cl)cc(Cl)c2cccnc12 [5,7-Dichloro-8-hydroxyquinoline] (Biolog plate: PM15, well positions: C1-4)", "Serratia marcescens K904 PosmB-luxCDABE reporter (pMQ747)", 1.43],
  ["O=C([O-])c1ccccc1O.[Na+] [sodium salicylate (NSAID)] (Biolog plate: PM17, well positions: B1-4)", "Serratia marcescens K904 PosmB-luxCDABE reporter (pMQ747)", 2.06],
  ["CC1(C)S[C@@H]2[C@H](NC(=O)Cc3ccccc3)C(=O)N2[C@H]1C(=O)O [Penicillin G] (Biolog plate: PM12, well positions: A2-4)", "Serratia marcescens K904 PosmB-luxCDABE reporter (pMQ747)", 1.02],
  ["O=C(N[C@H](CO)[C@H](O)c1ccc([N+](=O)[O-])cc1)C(Cl)Cl [Chloramphenicol] (Biolog plate: PM14, well positions: F1-4)", "Serratia marcescens K904 PosmB-luxCDABE reporter (pMQ747)", 1.87],
  ["CCn1cc(C(=O)O)c(=O)c2cc(F)c(N3CCNC(C)C3)c(F)c21 (centres undefined) [Lomefloxacin] (Biolog plate: PM11, well positions: B9-12)", "Serratia marcescens K904 PosmB-luxCDABE reporter (pMQ747)", 1.19],
  ["OB(O)O [Boric acid] (Biolog plate: PM14, well positions: C1-4)", "Serratia marcescens K904 PosmB-luxCDABE reporter (pMQ747)", 23.8],
  ["Cc1onc(-c2ccccc2Cl)c1C(=O)N[C@@H]1C(=O)N2[C@@H]1SC(C)(C)[C@@H]2C(=O)O [Cloxacillin] (Biolog plate: PM11, well positions: B5-8)", "Serratia marcescens K904 PosmB-luxCDABE reporter (pMQ747)", 1.06],
  ["CO[C@H]1/C=C/O[C@@]2(C)Oc3c(C)c(O)c4c(O)c(c(/C=N/N5CCN(C)CC5)c(O)c4c3C2=O)NC(=O)/C(C)=C\\C=C\\[C@H](C)[C@H](O)[C@@H](C)[C@@H](O)[C@@H](C)[C@H](OC(C)=O)[C@@H]1C [Rifampicin] (Biolog plate: PM12, well positions: H5-8)", "Serratia marcescens K904 PosmB-luxCDABE reporter (pMQ747)", 17.2],
  ["CN[C@@H]1[C@H](O[C@H]2[C@H](O[C@H]3[C@H](O)[C@@H](O)[C@H](N=C(N)N)[C@@H](O)[C@@H]3N=C(N)N)O[C@@H](C)[C@]2(O)C=O)O[C@@H](CO)[C@H](O)[C@H]1O [streptomycin] (Biolog plate: PM16, well positions: E1-4)", "Serratia marcescens K904 PosmB-luxCDABE reporter (pMQ747)", 1.98],
  ["OCC(O)CS (centres undefined) [thioglycerol] (Biolog plate: PM19, well positions: H5-8)", "Serratia marcescens K904 PosmB-luxCDABE reporter (pMQ747)", 1.08],
  ["CC1(C)S[C@@H]2[C@H](NC(=O)[C@H](N)c3ccccc3)C(=O)N2[C@H]1C(=O)O [Ampicillin] (Biolog plate: PM13, well positions: A2-4)", "Serratia marcescens K904 PosmB-luxCDABE reporter (pMQ747)", 1.06],
  ["CO[C@@]1(NC(=O)C(C(=O)O)c2ccc(O)cc2)C(=O)N2C(C(=O)O)=C(CSc3nnnn3C)CO[C@@H]21 (some centres undefined) [Moxalactam] (Biolog plate: PM13, well positions: H5-8)", "Serratia marcescens K904 PosmB-luxCDABE reporter (pMQ747)", 1.94],
  ["CN(C)[C@@H]1C(O)=C(C(N)=O)C(=O)[C@@]2(O)C(O)=C3C(=O)c4c(O)cccc4[C@@](C)(O)[C@H]3C[C@@H]12 [Tetracycline] (Biolog plate: PM12, well positions: A5-8)", "Serratia marcescens K904 PosmB-luxCDABE reporter (pMQ747)", 1.12],
  ["c1ccc(-c2nn(-c3ccccc3)[n+](-c3cccc4ccccc34)n2)cc1 [tetrazolium violet] (Biolog plate: PM20, well positions: B9-12)", "Serratia marcescens K904 PosmB-luxCDABE reporter (pMQ747)", 0.262]
]}
